Values compiled from PubChem BioAssay (NCI).

# System: SK-MEL-5 melanoma
# Protocol notes: NCI-60 one-dose screen, 48 h (100 = growth as untreated, 0 = no growth, -100 = all killed)
# Run parameters: 10 µM unless noted
The panel holds about 83,000 compounds, 20% with a hit somewhere; the sample as a whole holds those more often.
Exercise: for every item that follows, state its recorded growth.
One number for each entry, in %.

Example compounds with recorded growth:
Q. # input compound: "Cc1cc(C)on1" ; wanted: its growth
A. 99.6

Q. # input compound: "C#C[C@]1(O)CC[C@H]2[C@@H]3CC=C4c5sc(N=C(N)N)nc5CC[C@]4(C)[C@H]3CC[C@@]21C" ; wanted: its growth
A. -94.9

Q. # input compound: "CCCCCCCC/C=C\CCCCCCCC(=O)Oc1cccc2cccnc12" ; wanted: its growth
A. 102

Q. # input compound: "O=C(CC12CC3CC(CC(C3)C1)C2)NCCOCCOCCNC(=O)c1cc2c(o1)C(=O)c1ccccc1C2=O" ; wanted: its growth
A. -97.5

Q. # input compound: "Nc1c(C(=O)c2ccccc2)nnc2ncnn12" ; wanted: its growth
A. 98.6

Q. # input compound: "COc1cccc(-c2nc3sccn3c2-c2ccnc(NCCNS(=O)(=O)c3c(Cl)cccc3Cl)c2)c1" ; wanted: its growth
A. 26

Each of the following entries comes with a recorded value; kindly state growth for each.
1. COc1ccc(/C(C)=C(\c2ccc(Cl)cc2)c2ccc(OCCN3CCCCC3)cc2)cc1F
2. O=C(O)CC1Sc2ccccc2NC1=O (stereo not given)
3. N#Cc1c(NC(=O)c2ccccc2I)sc2c1CCCC2
4. [2H]c1nc(Nc2ncc(F)c(-c3cc(F)c4nc(C)n(C(C)C)c4c3)n2)c([2H])c([2H])c1CN1CCN(C([2H])([2H])C([2H])([2H])[2H])CC1

A.
1: 57.1; 2: 175; 3: 19.2; 4: 41.8

----------
# Test system: 786-0 renal
# Protocol notes: NCI-60 one-dose screen, 48 h (100 = growth as untreated, 0 = no growth, -100 = all killed)
# Run parameters: 10 µM unless noted
The panel holds about 83,000 compounds, 20% with a hit somewhere; the sample as a whole holds those more often. Activity calls are given as the source filed them. The calls were made as follows: active = growth percent below 10; inactive = the rest.
Readout name: growth

Q. Find the measured growth: item "CC(C)OC(=O)NNC(=O)c1ccncc1" , target or system 786-0 renal.
A. 104% (inactive)

Q. Find the measured growth: item C=C(C)[C@@H]1CC[C@@]2(C(=O)O)CC[C@]3(C)C(CCC4[C@@]5(C)CCC(OS(=O)(=O)c6ccccc6)C(C)(C)C5CC[C@]43C)C12 (stereo not given in full) , target or system 786-0 renal.
A. 56.5% (inactive)

Q. Find the measured growth: item "C[C@@H]1C(=O)N(C[C@@H](Cc2ccccc2)NC(=O)OCc2ccccc2)[C@]1(Cc1ccccc1)C(=O)OCc1ccccc1" , target or system 786-0 renal.
A. 52.9% (inactive)

Q. Find the measured growth: item "COc1ccc(-c2nc3sccn3c2/C=C/C(=O)c2c[nH]c3ccccc23)cc1" , target or system 786-0 renal.
A. 78.8% (inactive)

Lab note: next compound to report on.
Q. Find the measured growth: item "CS(=O)(=O)c1ccc(-c2[nH]c3ccc(F)cc3c2/C=N/O)cc1" , target or system 786-0 renal.
A. 95.8% (inactive)

----------
# Tested on: SK-MEL-5 melanoma
# Protocol notes: NCI-60 one-dose screen, 48 h (100 = growth as untreated, 0 = no growth, -100 = all killed)
# Run parameters: 10 µM unless noted
# Description: Growth inhibition of the SK-MEL-5 human tumor cell line is measured as a screen for anti-cancer activity. Cells are grown in 96 well plates and exposed to the test compound for 48 hours. Compounds are tested at a single concentration, which is 10^-5 M for most compounds. The reported endpoint is percent growth (GI% or GIPRCNT), where numbers from 0 - 100% represent growth inhibition, and numbers from -100% - 0 represent cell death. For example, a value of 40 represents 60% growth inhibition. […]
About 83,000 compounds went through this panel and 20% of them were active in at least one assay; those are over-represented in the sample as a whole.
Exercise: for every item that follows, state its recorded growth.
Answers are plain numbers, in %.

Each of the following entries comes with a recorded value; kindly state growth for each.
1. COc1cc(NC(=O)c2cccc(-c3cc(=O)c4c(O)c(OC)c(OC)cc4o3)c2)cc(OC)c1OC
2. Cl.Fc1c[c-]c(-c2ccccn2)c(F)c1.[Pt].c1ccc(P(c2ccccc2)C([PH+](c2ccccc2)c2ccccc2)[PH+](c2ccccc2)c2ccccc2)cc1
3. CCNCCNc1cc(-c2ccc(F)cc2)c(C#N)c2nc3ccccc3n12
4. CC(C)n1nc(C#Cc2cccc3cc(-c4cccc(C(F)(F)F)c4)ncc23)c2c(N)ncnc21
5. CCc1cc(Cc2cc(CC)cc(C(C)(C)C)c2O)c(O)c(C(C)(C)C)c1
6. C=C(C=O)C1CCC2(C(=O)O)CCC3(C)C(CCC4C5(C)CCC(O)C(C)(C)C5CCC43C)C12 (centres undefined)
7. Nc1nc(Nc2ccc(Cl)cc2)nn1S(=O)(=O)c1ccc(-c2ccc(F)cc2)cc1

A.
1: 39.2; 2: -91; 3: -62.9; 4: 85.1; 5: 6.03; 6: -96.9; 7: 98.7

Each of the following entries comes with a recorded value; kindly state growth for each.
1. CSc1ccc(Cl)c(C(=O)Nc2sccc2C(N)=O)c1
2. O=C1CSC(c2ccccc2O)N1c1nnc(Cn2cnnc2)o1 (centres undefined)

A.
95
95.1

----------
# Test system: MOLT-4 leukemia
# Protocol notes: NCI-60 one-dose screen, 48 h (100 = growth as untreated, 0 = no growth, -100 = all killed)
# Run parameters: 10 µM unless noted
The panel holds about 83,000 compounds, 20% with a hit somewhere; the sample as a whole holds those more often.
Decide by growth: equal to or exceeding 50% means condition met, less means condition not met.

Q. Given the entry O=C1CSC(c2ccccc2O)N1c1nnc(Cn2cnnc2)o1 (stereo not given) , answer whether its growth meets or surpasses 50%.
A. condition met

Q. Given the entry "COc1ccc(-c2cc(-c3cc(OC)ccc3O)[nH]c(=O)c2C#N)cc1" , answer whether its growth meets or surpasses 50%.
A. condition not met

Q. Given the entry CC(c1ccc(-n2cccn2)cc1)c1cnc(N2CCc3ccc(C(N)=O)cc3C2)s1 (stereo not given) , answer whether its growth meets or surpasses 50%.
A. condition not met

Q. Given the entry "CCCCn1c(=O)[nH]c(N)c(C(c2ccc(F)cc2)c2c(N)[nH]c(=O)n(CCCC)c2=O)c1=O" , answer whether its growth meets or surpasses 50%.
A. condition not met

Q. Given the entry "Fc1ccc(Nc2ccc3cc(OCCCN4CCOCC4)ccc3n2)cc1F" , answer whether its growth meets or surpasses 50%.
A. condition met

Q. Given the entry Cc1c(C)c2c(c(C)c1NC(=O)/C=C\C(=O)O)CCC(C)(CCCC(C)CCCC(C)CCCC(C)C)O2 (stereo not given) , answer whether its growth meets or surpasses 50%.
A. condition not met

Q. Given the entry "COC(=O)/C(=C\c1ccc(OC)cc1)C(=O)N1c2ccccc2Sc2ccccc21" , answer whether its growth meets or surpasses 50%.
A. condition not met

Q. Given the entry "O=C(CCCCCCCn1cc(-c2cccnc2)nn1)Nc1ccccc1-c1ccccc1" , answer whether its growth meets or surpasses 50%.
A. condition not met

Q. Given the entry "O=[N+]([O-])c1ccc(-c2cc3c(Nc4ccc(Cl)c(C(F)(F)F)c4)ncnc3s2)cc1" , answer whether its growth meets or surpasses 50%.
A. condition not met

From here, focus on the item given below.
Q. Given the entry Nc1nc(I)c2ncn(C3OC(CO)C(O)C3O)c2n1 (stereo not given) , answer whether its growth meets or surpasses 50%.
A. condition met

----------
# Test system: HS 578T breast
# Protocol notes: NCI-60 one-dose screen, 48 h (100 = growth as untreated, 0 = no growth, -100 = all killed)
# Run parameters: 10 µM unless noted
Compounds without any hit were thinned out: in the full panel of roughly 83,000, 20% have a hit.
Readout name: growth (%)
Give bare numbers, in %.

Q. # input compound: "CN(C)c1ccc(C#Cc2c(F)cccc2Cl)cc1" ; wanted: its growth
A. 94.5

Q. # input compound: "CC(=[N-])N1CCC[C@@H](Nc2c3ccccc3nc3ccccc23)C1.[Cl][Pt].[NH-]CCC[NH-]" ; wanted: its growth
A. 51.7

Each of the following entries comes with a recorded value; kindly state growth for each.
1. COc1ccc(C2CC(c3ccc4ccccc4c3)=NN2c2nc(O)c(C3=c4cc(Cl)ccc4=NC3=O)s2)cc1 (centres undefined)
2. CC(=O)Nc1cccc(C2=CC(c3ccc(C)cc3)n3ncnc3N2)c1 (centres undefined)
3. C=C1C(=O)O[C@H]2[C@H]1CC/C(Cn1cc(CNCCc3c[nH]c4ccccc34)nn1)=C\CC[C@@]1(C)O[C@@H]21
4. O=C(Oc1ccc[nH]c1=O)c1cc([N+](=O)[O-])cc([N+](=O)[O-])c1
5. c1ccc2[nH]c(SSc3nc4ncncc4[nH]3)nc2c1
6. CN(C)CN1CCN(c2ccc3nc(-c4ccc5nc(-c6ccc(C(F)(F)F)cc6)[nH]c5c4)[nH]c3c2)CC1

A.
-5.85
92.8
92.4
124
59.7
52.8

Q. # input compound: "CSc1ncc(C)c(Nc2ccc(Cl)cc2)n1" ; wanted: its growth
A. 94.9
